measured-target: T1, pCD163-SRCR4-7-huFc (porcine, UniProt Q2VL90 372-818, limits assumed)
T1 construct: also called pCD163:SRCR4-7-Fc; pCD163-SRCR4-7-Fc; not shown: human Fc (huFc)
T1 sequence (Q2VL90 372-818 limits assumed): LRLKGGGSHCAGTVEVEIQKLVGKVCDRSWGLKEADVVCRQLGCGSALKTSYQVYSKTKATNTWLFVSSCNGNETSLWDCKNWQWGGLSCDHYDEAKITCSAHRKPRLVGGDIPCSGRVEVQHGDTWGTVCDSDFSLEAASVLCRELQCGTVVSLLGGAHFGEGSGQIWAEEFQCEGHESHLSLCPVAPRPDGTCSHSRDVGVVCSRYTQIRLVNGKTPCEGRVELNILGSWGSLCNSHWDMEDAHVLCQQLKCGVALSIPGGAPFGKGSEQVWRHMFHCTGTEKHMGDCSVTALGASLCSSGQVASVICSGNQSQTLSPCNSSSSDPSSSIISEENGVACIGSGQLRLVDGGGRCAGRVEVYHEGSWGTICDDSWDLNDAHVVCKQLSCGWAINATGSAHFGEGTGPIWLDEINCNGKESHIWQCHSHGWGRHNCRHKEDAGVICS
protocol-text: SPR (Biacore 3000), antigen amine-coupled on CM5, VHH injected, pH 7.4

{"binder": "VHH 001 (1B02) (VHH, Llama single domain antibody; also called 144(#1); VHCDR3 144(#1); not shown: tags: c-myc tag in periplasmic extract (ELISA, FACS); FLAG and His tags in purified VHH (SPR, infection assays)) VHH: EVQLVESGGGLVQAGGSLSLSCAASGGTLAMYAMSWFRQAPGKDRKFVAAINTSGRYSRYADSVKGRFTISRDNAKNTATLQMNSLEPEDTAVYYCAATDKGNWALAMSYDYWGQGTQVTVSS", "kon / M⁻¹ s⁻¹": "2.46e+06"}
{"binder": "VHH 018 (3E01) (VHH, Llama single domain antibody; also called 49(#18); VHCDR3 49(#18); not shown: tags: c-myc tag in periplasmic extract (ELISA, FACS); FLAG and His tags in purified VHH (SPR, infection assays)) VHH: QVQLQESGGGLVQVGGSLRLSCVASGRAPSRYVMGWFRQAPGQEREFVAGIAWSGRAPYADSVKGRSTISRDNAKNTVYLQMNSLKPEDTGVYYCAGGEGAIRWTTLDAYDYWGQGTQVTVSS", "kon / M⁻¹ s⁻¹": 288000}
